Measured values drawn from patent US8168801B2 for this set.

Test: Thermal stability by thermogravimetric analysis (TGA)
Format: physicochemical
Details: 25° C. to 550° C. at 20° C./min under nitrogen, then air to 700° C., platinum pan
attribute.measured: Residue percentage (RP) (%)

> print(dat)
                                   molecule       attribute.measured  observed.measurement
1  Cc1nccn1CCC[n+]1ccn(CCC[n+]2ccn(C)c2C)c1C [Compound 11]  Residue percentage (RP)                  1.76
2                       Cc1n(C)cc[n+]1CCCBr  Residue percentage (RP)                  0.10
3  Cc1nccn1C [Compound 1, 1,2-dimethylimidazole, reference compound]  Residue percentage (RP)                  0.18
4  Cc1n(C)cc[n+]1CCCn1cc[n+](CCCBr)c1C [Compound 10]  Residue percentage (RP)                  0.50
5  Cc1n(C)cc[n+]1CCCn1cc[n+](CCCBr)c1C [Compound 9]  Residue percentage (RP)                  1.89
6  Cc1nccn1CCC[n+]1ccn(CCC[n+]2ccn(C)c2C)c1C [Compound 6]  Residue percentage (RP)                  1.38
7    Cc1nccn1CCC[n+]1ccn(C)c1C [Compound 4]  Residue percentage (RP)                  1.71
8  Cc1n(C)cc[n+]1CCCn1cc[n+](CCCBr)c1C [Compound 5]  Residue percentage (RP)                  0.59
9    Cc1nccn1CCC[n+]1ccn(C)c1C [Compound 3]  Residue percentage (RP)                  1.53
